ASSAYED TARGET: RPS6KA4 KD1 KD2 (human) (UniProt O75676)
Sequence (O75676 whole entry, looked up): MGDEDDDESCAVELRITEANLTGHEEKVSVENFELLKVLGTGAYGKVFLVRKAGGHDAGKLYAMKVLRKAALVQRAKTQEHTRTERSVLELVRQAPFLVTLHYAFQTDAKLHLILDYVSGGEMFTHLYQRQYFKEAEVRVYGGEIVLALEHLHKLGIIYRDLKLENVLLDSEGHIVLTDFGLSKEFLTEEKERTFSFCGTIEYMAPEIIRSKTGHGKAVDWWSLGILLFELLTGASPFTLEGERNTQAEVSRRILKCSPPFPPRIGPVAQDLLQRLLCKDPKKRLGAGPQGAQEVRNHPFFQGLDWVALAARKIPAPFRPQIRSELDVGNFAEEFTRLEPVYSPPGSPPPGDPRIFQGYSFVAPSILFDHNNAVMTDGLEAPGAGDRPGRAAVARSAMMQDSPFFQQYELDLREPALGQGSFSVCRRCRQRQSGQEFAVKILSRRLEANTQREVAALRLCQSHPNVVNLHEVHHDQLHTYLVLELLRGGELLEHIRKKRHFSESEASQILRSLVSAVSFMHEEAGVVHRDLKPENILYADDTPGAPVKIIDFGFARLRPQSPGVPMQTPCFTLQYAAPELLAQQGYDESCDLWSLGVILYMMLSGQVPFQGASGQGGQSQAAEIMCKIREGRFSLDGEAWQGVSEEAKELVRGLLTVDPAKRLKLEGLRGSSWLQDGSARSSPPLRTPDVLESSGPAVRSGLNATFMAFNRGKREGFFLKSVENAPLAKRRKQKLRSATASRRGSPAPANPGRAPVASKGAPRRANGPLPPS
PROTOCOL SUMMARY: Caliper, Mobility shift assay off-chip
COND: compound 0.02 µM
Field: inhibition. Provide a value for each of the molecules that follow.
Write it as a number; the unit % goes unstated.

Exam item: Recorded inhibition of COc1cc2c(Oc3ccc4[nH]c(C)cc4c3F)ncnc2cc1OCCCN1CCCC1 , please.
Marked response: -4.9

Exam item: Recorded inhibition of Cc1ccc(Nc2nccc(N(C)c3ccc4c(C)n(C)nc4c3)n2)cc1S(N)(=O)=O , please.
Marked response: -2.4

Exam item: Recorded inhibition of CNC(=O)c1cc(Oc2ccc(NC(=O)Nc3ccc(Cl)c(C(F)(F)F)c3)cc2)ccn1 , please.
Marked response: -1.1

Exam item: Recorded inhibition of CNC(=O)c1ccccc1Sc1ccc2c(/C=C/c3ccccn3)n[nH]c2c1 , please.
Marked response: -1.1

----------
ASSAYED TARGET: STK38 (human)
PROTOCOL SUMMARY: Caliper, Mobility shift assay off-chip
COND: compound 0.02 µM
MEASURED ENDPOINT: inhibition (%)
Write it as a number; the unit % goes unstated.

Exam item: Recorded inhibition of COc1cc2c(Oc3ccc4[nH]c(C)cc4c3F)ncnc2cc1OCCCN1CCCC1 , please.
Marked response: 9.6

Exam item: Recorded inhibition of CNC(=O)c1ccccc1Sc1ccc2c(/C=C/c3ccccn3)n[nH]c2c1 , please.
Marked response: -1.3

Exam item: Recorded inhibition of CNC(=O)c1cc(Oc2ccc(NC(=O)Nc3ccc(Cl)c(C(F)(F)F)c3)cc2)ccn1 , please.
Marked response: -2.5

Exam item: Recorded inhibition of Cc1ccc(Nc2nccc(N(C)c3ccc4c(C)n(C)nc4c3)n2)cc1S(N)(=O)=O , please.
Marked response: 0.1

----------
ASSAYED TARGET: PRKACA (human) (UniProt P17612)
PROTOCOL SUMMARY: Caliper, Mobility shift assay off-chip
COND: compound 0.2 µM
MEASURED ENDPOINT: inhibition (%)
Write it as a number; the unit % goes unstated.

Exam item: Recorded inhibition of CNC(=O)c1cc(Oc2ccc(NC(=O)Nc3ccc(Cl)c(C(F)(F)F)c3)cc2)ccn1 , please.
Marked response: 0.7

Exam item: Recorded inhibition of COc1cc2c(Oc3ccc4[nH]c(C)cc4c3F)ncnc2cc1OCCCN1CCCC1 , please.
Marked response: -4.8

Exam item: Recorded inhibition of CCN(CC)CCNC(=O)c1c(C)[nH]c(/C=C2\C(=O)Nc3ccc(F)cc32)c1C , please.
Marked response: 0.6

Exam item: Recorded inhibition of Cc1ccc(Nc2nccc(N(C)c3ccc4c(C)n(C)nc4c3)n2)cc1S(N)(=O)=O , please.
Marked response: -5

----------
Field: inhibition. Provide a value for each of the molecules that follow.
ASSAYED TARGET: UniProtKB Q14289
Sequence (Q14289 whole entry, looked up): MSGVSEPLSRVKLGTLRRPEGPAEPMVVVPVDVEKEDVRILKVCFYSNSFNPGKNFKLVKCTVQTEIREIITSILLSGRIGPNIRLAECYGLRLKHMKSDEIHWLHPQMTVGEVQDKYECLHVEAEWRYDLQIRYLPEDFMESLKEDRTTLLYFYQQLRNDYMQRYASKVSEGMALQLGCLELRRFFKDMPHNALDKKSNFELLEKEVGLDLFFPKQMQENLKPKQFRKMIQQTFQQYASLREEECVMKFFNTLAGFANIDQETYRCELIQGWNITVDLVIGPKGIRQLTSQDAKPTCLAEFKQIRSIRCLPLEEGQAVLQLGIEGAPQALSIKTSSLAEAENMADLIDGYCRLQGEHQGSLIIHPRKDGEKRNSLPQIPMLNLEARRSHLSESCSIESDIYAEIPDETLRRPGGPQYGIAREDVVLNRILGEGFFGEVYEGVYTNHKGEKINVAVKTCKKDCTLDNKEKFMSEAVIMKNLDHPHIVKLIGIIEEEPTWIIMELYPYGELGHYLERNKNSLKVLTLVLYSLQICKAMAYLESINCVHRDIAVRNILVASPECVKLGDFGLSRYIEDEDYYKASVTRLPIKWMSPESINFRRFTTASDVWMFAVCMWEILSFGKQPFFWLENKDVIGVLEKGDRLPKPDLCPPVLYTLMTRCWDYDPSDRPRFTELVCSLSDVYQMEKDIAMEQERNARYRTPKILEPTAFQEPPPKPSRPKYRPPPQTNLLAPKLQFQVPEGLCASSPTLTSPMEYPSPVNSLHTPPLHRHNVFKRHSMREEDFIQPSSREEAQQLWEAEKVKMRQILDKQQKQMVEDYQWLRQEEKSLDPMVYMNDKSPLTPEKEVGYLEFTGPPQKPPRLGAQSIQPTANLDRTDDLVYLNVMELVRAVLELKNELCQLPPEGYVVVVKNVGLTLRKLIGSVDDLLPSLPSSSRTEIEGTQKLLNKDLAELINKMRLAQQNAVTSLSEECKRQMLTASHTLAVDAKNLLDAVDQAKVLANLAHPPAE
PROTOCOL SUMMARY: Caliper, Mobility shift assay off-chip
COND: compound 0.2 µM
Write it as a number; the unit % goes unstated.

Exam item: Recorded inhibition of CCN(CC)CCNC(=O)c1c(C)[nH]c(/C=C2\C(=O)Nc3ccc(F)cc32)c1C , please.
Marked response: 72.4

Exam item: Recorded inhibition of Cc1ccc(Nc2nccc(N(C)c3ccc4c(C)n(C)nc4c3)n2)cc1S(N)(=O)=O , please.
Marked response: 9.7

Exam item: Recorded inhibition of COc1cc2c(Oc3ccc4[nH]c(C)cc4c3F)ncnc2cc1OCCCN1CCCC1 , please.
Marked response: -5.4

Exam item: Recorded inhibition of CNC(=O)c1cc(Oc2ccc(NC(=O)Nc3ccc(Cl)c(C(F)(F)F)c3)cc2)ccn1 , please.
Marked response: -2.7
